Measured values drawn from ChEMBL document CHEMBL3351264 for this set.

# experimental target: Sphingosine 1-phosphate receptor 3 (Homo sapiens)
# Sequence (Q99500 whole entry): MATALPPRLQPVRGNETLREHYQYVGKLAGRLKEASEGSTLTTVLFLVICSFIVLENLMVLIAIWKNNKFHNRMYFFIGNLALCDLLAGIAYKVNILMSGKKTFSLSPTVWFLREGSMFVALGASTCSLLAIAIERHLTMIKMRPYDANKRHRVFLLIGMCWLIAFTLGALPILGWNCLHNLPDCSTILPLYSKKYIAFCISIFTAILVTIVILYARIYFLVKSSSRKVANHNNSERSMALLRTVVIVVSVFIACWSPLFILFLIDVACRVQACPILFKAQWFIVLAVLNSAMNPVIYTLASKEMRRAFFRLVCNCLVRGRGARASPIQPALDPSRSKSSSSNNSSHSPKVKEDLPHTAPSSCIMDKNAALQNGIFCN
# method description: Partial agonist activity at human S1P3 receptor expressed in human EDG3-bla U2OS cells after 18 hrs by beta-arrestin recruitment assay
# Assay type: cell-based
property: %max (%)
Enter your answer as a number in %; do not include the unit.

Recorded results for 3 compounds are shown here.
• N[C@@H](CO)COc1cc(Cl)c(-c2nnc(N3CCN(C(=O)c4cccc(Cl)c4)CC3)s2)cc1F = 48
• CC(C)(C(=O)N1CCN(c2noc(-c3cc(F)c(OC[C@@H](N)CO)cc3Cl)n2)CC1)C(F)(F)F = 44
• CC1(C)CC(C(=O)N2CCN(c3noc(-c4cc(F)c(OC[C@@H](N)CO)cc4Cl)n3)CC2)C1 = 63

Consider the record given below.
The reported value for N[C@@H](CO)COc1cc(Cl)c(-c2nnc(N3CCN(C(=O)C4CCCC4)CC3)s2)cc1F in terms of %max is 45

====

# experimental target: Sphingosine 1-phosphate receptor 1 (Homo sapiens, UniProt P21453)
# Sequence (P21453 whole entry): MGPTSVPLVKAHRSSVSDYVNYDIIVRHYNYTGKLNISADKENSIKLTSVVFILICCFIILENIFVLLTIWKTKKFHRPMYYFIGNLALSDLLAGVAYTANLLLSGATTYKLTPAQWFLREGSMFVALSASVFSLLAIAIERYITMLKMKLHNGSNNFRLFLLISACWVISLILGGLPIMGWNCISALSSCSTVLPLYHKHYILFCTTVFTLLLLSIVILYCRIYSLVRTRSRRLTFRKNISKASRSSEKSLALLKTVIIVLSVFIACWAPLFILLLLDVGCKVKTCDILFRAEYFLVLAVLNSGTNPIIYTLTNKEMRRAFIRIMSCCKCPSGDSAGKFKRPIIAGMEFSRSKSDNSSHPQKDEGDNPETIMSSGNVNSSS
# method description: Agonist activity at human S1P1 receptor expressed in human EDG1-bla U2OS cells after 18 hrs by beta-arrestin recruitment assay
Reported EC50 is given for each of the following compounds.
Enter your answer as a number in nM; do not include the unit.

Recorded results for 6 compounds are shown here.
- N[C@@H](CO)COc1cc(Cl)c(-c2nc(N3CCN(C(=O)C4CCCCC4)CC3)no2)cc1F: 1.2
- N[C@@H](CO)COc1cc(Cl)c(-c2nc(N3CCN(C(=O)c4ccccc4)CC3)no2)cc1F: 6.5
- CCc1cccnc1C(=O)N1CCN(c2noc(-c3cc(F)c(OC[C@@H](N)CO)cc3Cl)n2)CC1: 5.3
- N[C@H](COc1cc(Cl)c(-c2nc(N3CCN(C(=O)C4CCCC4)CC3)no2)cc1F)COP(=O)(O)O: 0.5
- N[C@H](CO)COc1cc(Cl)c(-c2nc(N3CCN(C(=O)c4cccc(Cl)c4)CC3)no2)cc1F: 2400
- CCC(C)(C)C(=O)N1CCN(c2noc(-c3cc(F)c(OCC(N)CO)cc3Cl)n2)CC1 (stereo not given): 46

The reported value for N[C@@H](CO)COc1cc(Cl)c(-c2noc(N3CCN(C(=O)C4CCCC4)CC3)n2)cc1F in terms of EC50 is 55

The reported value for N[C@@H](CO)COc1cc(Cl)c(-c2nc(N3CCN(C(=O)c4ccccn4)CC3)no2)cc1F in terms of EC50 is 92

The reported value for N[C@@H](CO)COc1cc(Cl)c(-c2nc(N3CCN(C(=O)c4cccc(Cl)c4)CC3)no2)cc1F in terms of EC50 is 4.1

The reported value for N[C@@H](CO)COc1cc(Cl)c(-c2nc(N3CCN(C(=O)C4CCC4)CC3)no2)cc1F in terms of EC50 is 17

The reported value for N[C@@H](CO)COc1cc(Cl)c(-c2noc(N3CCN(C(=O)c4cccc(Cl)c4)CC3)n2)cc1F in terms of EC50 is 12

The reported value for CC(C)(C(=O)N1CCN(c2noc(-c3cc(F)c(OC[C@@H](N)CO)cc3Cl)n2)CC1)C(F)(F)F in terms of EC50 is 9.8

The reported value for N[C@@H](CO)COc1cc(Cl)c(-c2nnc(N3CCN(C(=O)C4CCCC4)CC3)s2)cc1F in terms of EC50 is 0.5
